Every entry's value here was drawn from PubChem BioAssay.

For each record, write down the corresponding composite z-score.
assay_system: Albumin (Bos taurus)
procedure_summary: bovine serum albumin binders on microarray, profiling panel, artefact control for SMM control protein annotation, biochemical, small-molecule microarray, Alexa647 label, 635/667 nm fluorescence (AID 1118);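 note: score merges 667 nm emission intensity and signal-to-noise per printed compound spot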
run_conditions: BSA-A647 binding, fluorescence 635 nm, higher = more signal
Reply briefly: the number, and no unit.

Documented composite z-score of "Cc1ccc(S[C@]2(C(=O)NCC(C)C)CC(=O)N(C3Cc4ccccc4C3)[C@@H]2c2ccc(CO)cc2I)cc1" : -0.615

Documented composite z-score of "COC(=O)[C@@]1(Cc2ccc(F)cc2)[C@H]2c3cc(C(=O)N4CCCC4)n(C)c3C[C@H]2CN1C(=O)c1ccccc1" : 0.942

Documented composite z-score of "Cc1ccc(S[C@]2(C(=O)NC(C)C)CC(=O)N(Cc3ccccc3Cl)[C@@H]2c2ccc(CO)cc2)cc1" : 0.29

Documented composite z-score of "NC(=O)[C@H]1[C@@H]2C(=O)O[C@@H](c3ccccc3)[C@@H](c3ccccc3)N2[C@@H](c2ccc(O)cc2)[C@]12C(=O)Nc1ccccc12" : 0.295

Documented composite z-score of "[N-]=[N+]=NCc1ccccc1C[C@@]1(C(=O)N2CCCCC2)N=C(c2ccc(OCCCO)cc2)O[C@@H]1c1ccccc1CN=[N+]=[N-]" : 0.36

Documented composite z-score of "C[C@]1(C(=O)O)c2ccccc2C(=O)N(Cc2ccc(OC(F)(F)F)cc2)[C@H]1c1ccc(CO)cc1" : 0.12

Documented composite z-score of C=CCC(OC(C)=O)[C@@H]1[C@@H](N(Cc2cc3ccccc3o2)C(=O)c2ccc(-c3ccccc3)cc2)c2cc(OCCCO)ccc2N1C(=O)Cc1ccc(OC)cc1 (some centres not stated) : 0.0787
